Tested on: HCT-116
Assay: Cytotoxicity assay (SRB), HCT-116
Type: cell-based
Conditions: Homo sapiens, HCT-116, 72 h, HCT116 cells, 3 days, SRB; read-out: In Vitro Cellular Activity IC50 HCT116
RECORDED_METRIC: pIC50
For clarity, pIC50 is expressed as the negative log10 of concentration in mol/L.

### Prompt Fill in the blank: the reported pIC50 of CN(C)C[C@@H]1CCCN1Cc1ccc(N/C=C2\C(=O)NC(=O)c3ccc(I)cc32)cc1 is ____.
### Response 5.42

### Prompt CCCOc1ccc(CN/C=C2\C(=O)NC(=O)c3ccc(-c4ccoc4)cc32)cc1O , same question.
### Response 5.87

### Prompt Do the same for O=C1NC(=O)c2ccc(I)cc2/C1=C/NCc1ccn(-c2ccoc2)c(=O)c1 please
### Response 6.15

### Prompt Also check NS(=O)(=O)c1ccc(CNC=C2C(=O)NC(=O)c3ccc(C=CC4CCCCC4)cc32)cc1
### Response 4.90

### Prompt What do we get for CN(C)C1CCN(Cc2ccc(N/C=C3\C(=O)NC(=O)c4ccc(-c5ccoc5)cc43)cc2)C1 (stereo not shown) ?
### Response 5.81

### Prompt Entry to check: NS(=O)(=O)c1ccc(CNC=C2C(=O)NC(=O)c3ccc(-c4ccccc4Cl)cc32)cc1
### Response 5.20

### Prompt Same again, this time with CC(C)(C)c1ccc2c(c1)/C(=C/NCc1ccn(-c3ccoc3)c(=O)c1)C(=O)NC2=O
### Response 5.82

### Prompt Then what about the compound O=C1NC(=O)c2ccc(-c3csc4ccccc34)cc2C1=CNCc1ccc(O)c(O)c1 ?
### Response 5.05

### Prompt O=C1NC(=O)c2ccc(-c3ccccc3)cc2C1=CNCc1ccc(O)c(O)c1 ?
### Response 4.93

### Prompt What do you have for CCN1CCCC1c1ccc(N/C=C2\C(=O)NC(=O)c3ccc(-c4ccoc4)cc32)cc1 (stereo not shown) ?
### Response 5.62

### Prompt Same for CCN1CCN(c2ccc(N/C=C3\C(=O)NC(=O)c4ccc(-c5ccoc5)cc43)nc2)CC1
### Response 6.06

### Prompt Please answer likewise for NS(=O)(=O)c1ccc(CNC=C2C(=O)NC(=O)c3ccc(-c4ccccc4F)cc32)cc1
### Response 5.11

### Prompt Do the same for CN(C)CCCN(C)c1ccc(N/C=C2\C(=O)NC(=O)c3ccc(Br)cc32)cc1 please
### Response 5.38

### Prompt Try this compound too: COc1ccc(CNC=C2C(=O)NC(=O)c3ccc(C=Cc4ccncc4)cc32)cc1O
### Response 4.56

### Prompt Next compound: COC1CCN(Cc2ccc(N/C=C3\C(=O)NC(=O)c4ccc(I)cc43)cc2)CC1
### Response 5.43

### Prompt Can you check O=C1NC(=O)c2ccc(-c3ccco3)cc2/C1=C/NCc1ccc(-c2ccc(F)cc2)c(O)c1 next?
### Response 5.59

* * *

Biological target: cyclin B/CDK1 enzyme (Homo sapiens, UniProt P06493)
Construct: purchased New England BioLabs; host or cells: Sf9 insect cells, recombinant baculovirus
Sequence (P06493 whole entry): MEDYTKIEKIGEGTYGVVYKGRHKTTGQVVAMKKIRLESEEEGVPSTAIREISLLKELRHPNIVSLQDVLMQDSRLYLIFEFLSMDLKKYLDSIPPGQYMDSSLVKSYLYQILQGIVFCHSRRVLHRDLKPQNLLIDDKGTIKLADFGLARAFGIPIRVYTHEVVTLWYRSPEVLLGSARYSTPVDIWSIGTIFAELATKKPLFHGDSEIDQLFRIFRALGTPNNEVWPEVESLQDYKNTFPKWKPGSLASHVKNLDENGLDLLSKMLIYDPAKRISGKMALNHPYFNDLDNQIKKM
Sequence (P14635 whole entry partner): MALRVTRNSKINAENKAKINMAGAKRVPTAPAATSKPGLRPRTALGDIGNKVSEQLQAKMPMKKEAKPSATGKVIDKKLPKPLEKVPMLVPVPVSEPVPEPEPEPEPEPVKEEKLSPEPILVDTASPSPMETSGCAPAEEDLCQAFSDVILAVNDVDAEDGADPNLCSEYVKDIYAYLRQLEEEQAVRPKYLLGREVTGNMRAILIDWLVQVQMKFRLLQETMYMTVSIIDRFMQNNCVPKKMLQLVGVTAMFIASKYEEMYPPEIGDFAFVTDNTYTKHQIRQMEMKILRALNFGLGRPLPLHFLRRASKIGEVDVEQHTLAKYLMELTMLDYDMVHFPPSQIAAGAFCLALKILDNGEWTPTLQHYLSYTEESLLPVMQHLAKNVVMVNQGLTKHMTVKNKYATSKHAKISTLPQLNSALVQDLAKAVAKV
Assay: CDK1 ELISA kinase assay (phospho-Rb ser 795 detection)
Assay type: biochemical
Conditions: In Vitro Enzyme Assay, cyclin B/CDK1, read-out: CDK1 IC50
Please note: IC50 exactly at 20 µM is n. Only values below 20 µM get y.

### Prompt In plain terms, does CCC(=O)Nc1cnc(CN/C=C2\C(=O)NC(=O)c3ccc(I)cc32)cc1O [Example 470] come in under 20 µM for IC50?
### Response y

### Prompt Entry to check: CN1CCN(c2ccc(NC=C3C(=O)NC(=O)c4ccc(C=Cc5ccc(S(N)(=O)=O)cc5)cc43)cc2)CC1 [Example 728]
### Response y

### Prompt Field entry: O=C1NC(=O)c2ccc(-c3ccc4ccccc4c3)cc2C1=CNCc1ccc(O)c(O)c1 [Example 641]
### Response n

### Prompt And then O=C1NC(=O)c2ccc(I)cc2/C1=C/Nc1ccc(CN2CCC(CCO)CC2)cc1 [Example 480] , what is it?
### Response n

### Prompt Now give it for O=C1NC(=O)c2ccc(C=Cn3ccnc3)cc2C1=CNCc1ccc(O)c(O)c1 [Example 667] too.
### Response n

### Prompt # repeat for NS(=O)(=O)c1ccc(CNC=C2C(=O)NC(=O)c3ccc(-c4ccc(F)cc4)cc32)cc1 [Example 738]
### Response n

### Prompt Also CN1CCN(c2ncc(N/C=C3\C(=O)NC(=O)c4ccc(-c5ccoc5)cc43)cn2)CC1 [Example 484] ?
### Response n

### Prompt Entry COc1ccc(CNC=C2C(=O)NC(=O)c3ccc(-c4ccc5ccccc5c4)cc32)cc1O [Example 834] please
### Response n

### Prompt Further, for CN1CCN(c2ccc(NC=C3C(=O)NC(=O)c4ccc(-c5ccn(CC(N)=O)c5)cc43)cc2)CC1 [Example 853] ?
### Response n

### Prompt Also CN(C)c1ccc(-c2ccc3c(c2)C(=CNCc2ccc(O)c(O)c2)C(=O)NC3=O)cc1 [Example 816] , if possible.
### Response n

### Prompt Consider next the compound CC(=O)c1cccc(-c2ccc3c(c2)C(=CNCc2ccc(O)c(O)c2)C(=O)NC3=O)c1 [Example 776] in the same way.
### Response n

### Prompt Can you check N=C(N)c1ccc(NC=C2C(=O)NC(=O)c3ccccc32)cc1 [Example 547] next?
### Response n

### Prompt Same thing, different compound: CN(C)CC(=O)Nc1ccc(CN/C=C2\C(=O)NC(=O)c3ccc(I)cc32)cc1O [Example 526]
### Response y

### Prompt Param item: O=C1NC(=O)c2ccc(N3CCCC3)cc2/C1=C/NCc1ccc(O)c(O)c1 [Example 609]
### Response y

### Prompt Follow-up item: Cc1ncsc1C=Cc1ccc2c(c1)C(=CNCc1ccc(S(N)(=O)=O)cc1)C(=O)NC2=O [Example 659]
### Response n

* * *

Molecular target: cyclin E/CDK2 enzyme (Homo sapiens)
Construct: made in house; host or cells: Sf9 insect cells, recombinant baculovirus
Test: CDK2 ELISA kinase assay (phospho-Rb ser 795 detection)
Assay type: biochemical
Details: In Vitro Enzyme Assays, read-out: CDK2 IC50
pIC50: −log10 of the molar value.
Field: pIC50. Provide a value for each of the molecules that follow.

### Prompt Fill in: pIC50 of O=C1NC(=O)c2ccc(-c3ccsc3)cc2/C1=C/NCc1ccc(OC(F)F)c(O)c1 is ___
### Response 4.58

### Prompt CN(C)C[C@@H]1CCCN1Cc1ccc(N/C=C2\C(=O)NC(=O)c3ccc(I)cc32)cc1 ?
### Response < 4.30

### Prompt Try CN1CCN(c2ccc(N/C=C3\C(=O)NC(=O)c4ccc(-c5coc(C=O)c5)cc43)nc2)CC1 next.
### Response < 4.30

### Prompt Param item: O=C1NC(=O)c2ccc(Br)cc2/C1=C/Nc1ccc(CN2CCOCC2)cc1
### Response < 4.30

### Prompt How about CCN1CCN(c2ccc(N/C=C3\C(=O)NC(=O)c4ccc(I)cc43)cn2)CC1 ?
### Response < 4.30

### Prompt Follow-up entry: CN1CCN(c2ccc(N/C=C3\C(=O)NC(=O)c4ccc(-c5coc(CN6CCCC6)c5)cc43)nc2)CC1
### Response < 4.30

### Prompt Next entry: O=C1NC(=O)c2ccccc2/C1=C/Nc1ccc(CN2CCOCC2)cc1
### Response 4.67

### Prompt CN1CCN(c2ccc(N/C=C3\C(=O)NC(=O)c4ccc(I)cc43)cn2)CC1 , same question.
### Response 4.65

* * *

System: HCT-116
Test: Cytotoxicity assay (SRB), HCT-116
Type: cell-based
Conditions: Homo sapiens, HCT-116, 72 h, HCT116 cells, SRB, three days; read-out: In Vitro Cellular Activity IC50 HCT116
Give IC50 for every item shown.
Supply the numeric figure in µM, leaving out any unit text.

### Prompt Recorded IC50 for COc1ccc(CN/C=C2\C(=O)NC(=O)c3ccc(-c4ccsc4)cc32)cc1O , please?
### Response 3.4

### Prompt How about CC(C)N1CCN(c2ccc(N/C=C3\C(=O)NC(=O)c4ccc(I)cc43)cc2)CC1 ?
### Response 2.6

### Prompt How about this compound: CN1CCN(c2ccc(N/C=C3\C(=O)NC(=O)c4ccc(Br)cc43)cc2)CC1
### Response 3.1

### Prompt Again, but for COc1ccc(CN/C=C2\C(=O)NC(=O)c3ccc(-c4ccc(F)cc4)cc32)cc1O
### Response 5.7

### Prompt Do the same for COc1ccc(CN/C=C2\C(=O)N(C(C)=O)N(C(C)=O)c3ccccc32)cc1O please
### Response 11

### Prompt Try C=C(CN(C)C)C(=O)Nc1ccc(CN/C=C2\C(=O)NC(=O)c3ccc(I)cc32)cc1O next.
### Response 0.95

### Prompt Same again, this time with COc1ccc(/C=C2/C(=O)NC(=O)c3ccccc32)cc1OC
### Response 2.1

### Prompt Check CN1CCN(c2ccc(N/C=C3\C(=O)N(CO)C(=O)c4ccc(Br)cc43)cc2)CC1 too.
### Response 3.2
